Study Target: Bifunctional purine biosynthesis protein ATIC (Homo sapiens)
Experimental Details: Binding affinity towards AICAR formyltransferase
Readout Name: Kd (nM)

| Compound | Readout Name | Result Unit | Recorded Number |
| --- | --- | --- | --- |
| NC(=O)c1ncn(C2O[C@H](COP(=O)(O)O)[C@@H](O)[C@H]2O)c1/C=C/C(=O)N(CC1=NC2C(=O)NC(N)=NC2C=C1)c1ccc(C(=O)N[C@@H](CCC(=O)O)C(=O)O)cc1 (stereo partly specified) | Kd | nM | 20 |

====

Study Target: Bifunctional purine biosynthesis protein ATIC (Homo sapiens, UniProt P31939)
Sequence (P31939 whole entry): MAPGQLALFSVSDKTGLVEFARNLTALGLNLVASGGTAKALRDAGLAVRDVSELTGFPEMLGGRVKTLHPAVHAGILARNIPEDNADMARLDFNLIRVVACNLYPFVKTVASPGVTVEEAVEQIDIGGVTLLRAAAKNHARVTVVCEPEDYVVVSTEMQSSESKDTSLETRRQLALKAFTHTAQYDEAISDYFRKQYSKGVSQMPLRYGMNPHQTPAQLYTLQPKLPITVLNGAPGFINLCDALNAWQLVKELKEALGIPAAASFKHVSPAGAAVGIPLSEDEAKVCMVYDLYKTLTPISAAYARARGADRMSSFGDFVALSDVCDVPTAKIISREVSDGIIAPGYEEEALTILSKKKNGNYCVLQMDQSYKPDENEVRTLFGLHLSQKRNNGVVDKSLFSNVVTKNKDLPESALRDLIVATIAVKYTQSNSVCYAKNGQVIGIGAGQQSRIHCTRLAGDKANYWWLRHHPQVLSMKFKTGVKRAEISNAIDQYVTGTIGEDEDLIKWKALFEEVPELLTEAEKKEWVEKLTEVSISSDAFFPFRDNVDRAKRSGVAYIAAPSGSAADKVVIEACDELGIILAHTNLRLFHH
Experimental Details: Inhibitory activity against AICAR formyltransferase
pIC50: −log10 of the molar value.

| Molecule | Study Target | pIC50 |
| --- | --- | --- |
| NC(=O)c1ncn(C2O[C@H](COP(=O)(O)O)[C@@H](O)[C@H]2O)c1/C=C/C(=O)N(CC1=NC2C(=O)NC(N)=NC2C=C1)c1ccc(C(=O)N[C@@H](CCC(=O)O)C(=O)O)cc1 (stereo partly specified) | Bifunctional purine biosynthesis protein ATIC (Homo sapiens, UniProt P31939) | 6.90 |
